Data origin, for the record: patent US20190071490A1

Here, each record is paired with measured α-rat koff data.
- ASSAYED SYSTEM: T1, rat α-CGRP (Rattus norvegicus, UniProt P01256)
- T1 construct: rat α (1-37); purchased GenScript Corporation or Global Peptide Services
- T1 sequence (P01256 83-119 limits assumed): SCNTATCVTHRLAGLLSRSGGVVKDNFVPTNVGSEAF
- PROTOCOL NOTES: Biacore SPR affinity of Fab fragments to N-biotinylated rat α-CGRP on SA chip
- Format: binding
- PROTOCOL CONDITIONS: 37° C., screening mode except underlined values
Dear colleague, please return just the value in s⁻¹, with no unit written.

# MOLECULE, α-rat koff / s⁻¹
records = [
    ("M74: G1 variant; L1 R28N T30G; L2 L56S; H2 E54K A57S; HC-FW3 L99T A100V (antibody, V domains shown) VH: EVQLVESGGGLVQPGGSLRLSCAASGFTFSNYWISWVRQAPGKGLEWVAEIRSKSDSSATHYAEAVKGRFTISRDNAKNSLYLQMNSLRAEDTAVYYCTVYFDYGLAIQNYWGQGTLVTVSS VL: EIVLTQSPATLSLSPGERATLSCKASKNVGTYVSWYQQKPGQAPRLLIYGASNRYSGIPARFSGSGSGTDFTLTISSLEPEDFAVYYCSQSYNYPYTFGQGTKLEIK", 0.00603),
]

Okay, now this molecule:
M25: G1 variant; L1 R28N; HC-FW3 L99T A100V (antibody, V domains shown) VH: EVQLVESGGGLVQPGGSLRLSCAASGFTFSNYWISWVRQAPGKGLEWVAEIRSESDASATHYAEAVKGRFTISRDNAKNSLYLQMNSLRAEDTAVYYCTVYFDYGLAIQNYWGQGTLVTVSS VL: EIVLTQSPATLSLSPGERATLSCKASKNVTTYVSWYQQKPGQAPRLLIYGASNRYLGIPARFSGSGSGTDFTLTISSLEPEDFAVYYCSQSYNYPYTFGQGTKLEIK yielded α-rat koff of 0.0014
